Target: X-box-binding protein 1 (Homo sapiens)
Test Summary: ATG_Xbp1_CIS: Attagene CIS-FACTORIAL HepG2 Assay for human X-box Binding Protein 1 (XBP1) (AID 2282972)
Condition Set: HepG2 XBP1 cis-element reporter, Attagene multiplex; actives raise or lower the signal
Calls of active or inactive are those of the source. The calls were made as follows: active = hit-call score of the fitted dose curve at least 0.9, where 1 is the maximum; inactive = score below 0.9.
Entry note: the call must match one of active, inactive

Past entries and their recorded results:
Molecule	Assigned Class
CCCCCC(=O)CC	inactive
CCC(=O)OCCOc1ccccc1	inactive
ClC(c1ccccc1)(c1ccccc1)c1ccccc1	inactive
CCOC(=O)c1ccc(N)cc1	inactive
CCCCC1(COC(=O)CCC(=O)O)C(=O)N(c2ccccc2)N(c2ccccc2)C1=O	inactive
Cc1cc(S(=O)(=O)O)ccc1N=Nc1c(O)ccc2ccccc12	inactive
O=C(CC(=O)c1ccccc1)c1ccccc1	active
Nc1ccc(NCCO)c([N+](=O)[O-])c1	inactive
Cc1cc(C)nc(NS(=O)(=O)c2ccc(N)cc2)n1	inactive
NCC1CCCC(CN)C1 (configuration not stated)	inactive

Query block: Please state the recorded outcome for this molecule: COc1ccc(COC(C)=O)cc1
Result block: inactive

Query block: Please state the recorded outcome for this molecule: O=C1OC(=O)c2c(Br)c(Br)c(Br)c(Br)c21
Result block: inactive

Query block: Please state the recorded outcome for this molecule: CC(C)C(OC(=O)c1ccccc1)C(C)(C)COC(=O)c1ccccc1 (configuration not stated)
Result block: inactive

Query block: Please state the recorded outcome for this molecule: CS(=O)(=O)c1ccc(C2=C(c3ccccc3)C(=O)OC2)cc1
Result block: inactive

Query block: Please state the recorded outcome for this molecule: Oc1c(Cl)cc(Cl)c(Cl)c1Cc1c(O)c(Cl)cc(Cl)c1Cl
Result block: inactive

Query block: Please state the recorded outcome for this molecule: O=C1OC(=O)c2c(Cl)c(Cl)c(Cl)c(Cl)c21
Result block: inactive

====

Test Summary: ATG_PPRE_CIS: Attagene CIS-FACTORIAL HepG2 Assay for human Peroxisome Proliferator-activated Response Element (PPRE) (AID 2282958)
Condition Set: HepG2 PPRE cis-element reporter, Attagene transcription factor profiling; actives raise or lower the signal
The source made the active and inactive calls. Rule for the calls: active = hit-call score of the fitted dose curve at least 0.9, where 1 is the maximum; inactive = score below 0.9.
Entry note: the call must match one of Y for active, N for inactive

Query block: Please state the recorded outcome for this compound: CCOC(=O)COC(=O)c1cc(Oc2ccc(C(F)(F)F)cc2Cl)ccc1[N+](=O)[O-]
Result block: Y

Query block: Please state the recorded outcome for this compound: COC(=O)c1ccc(C)cc1C1=NC(C)(C(C)C)C(=O)N1 (stereo not given) (tested in a mixture with another compound)
Result block: N

Query block: Please state the recorded outcome for this compound: CCC(=O)O[C@@H]1C[C@H]2CC[C@]1(C)C2(C)C
Result block: N

====

Test Summary: ATG_M_06_CIS: Attagene CIS-FACTORIAL HepG2 Assay for M06 Transcription Factor (Internal Marker) (AID 2282950)
Condition Set: HepG2 Attagene CIS-FACTORIAL M06 internal marker reporter; actives raise or lower the signal
Calls of active or inactive are those of the source. Rule for the calls: active = hit-call score of the fitted dose curve at least 0.9, where 1 is the maximum; inactive = score below 0.9.
Readout Name: outcome

Example compounds with recorded outcome:
Compound	Assay Value
CCCCCCCCCC(=O)OC	inactive
C=C1CC[C@H](O)C/C1=C/C=C1\CCC[C@]2(C)[C@@H]([C@H](C)/C=C/[C@H](C)C(C)C)CC[C@@H]12	inactive
CCCCCCC(=O)c1ccccc1	inactive
C=CC(=O)OCCCC	inactive
O=C1OC[C@H](Cc2cccc(O)c2)[C@H]1Cc1cccc(O)c1	inactive

Query block: What value of outcome has been reported for the following compound? ON=C1CCCCC1
Result block: inactive

Query block: What value of outcome has been reported for the following compound? Nc1ccc(Cl)c([N+](=O)[O-])c1
Result block: inactive

Query block: What value of outcome has been reported for the following compound? CC(CN=Cc1ccccc1O)N=Cc1ccccc1O (stereo not drawn)
Result block: inactive
